# system: human HIPK2 (Homo sapiens)
# Construct: Recombinant human HIPK2 (1-640); GST (N); purchased SignalChem H04-11BG; host or cells: Sf9 insect cells
# Sequence (Q9H2X6 1-640): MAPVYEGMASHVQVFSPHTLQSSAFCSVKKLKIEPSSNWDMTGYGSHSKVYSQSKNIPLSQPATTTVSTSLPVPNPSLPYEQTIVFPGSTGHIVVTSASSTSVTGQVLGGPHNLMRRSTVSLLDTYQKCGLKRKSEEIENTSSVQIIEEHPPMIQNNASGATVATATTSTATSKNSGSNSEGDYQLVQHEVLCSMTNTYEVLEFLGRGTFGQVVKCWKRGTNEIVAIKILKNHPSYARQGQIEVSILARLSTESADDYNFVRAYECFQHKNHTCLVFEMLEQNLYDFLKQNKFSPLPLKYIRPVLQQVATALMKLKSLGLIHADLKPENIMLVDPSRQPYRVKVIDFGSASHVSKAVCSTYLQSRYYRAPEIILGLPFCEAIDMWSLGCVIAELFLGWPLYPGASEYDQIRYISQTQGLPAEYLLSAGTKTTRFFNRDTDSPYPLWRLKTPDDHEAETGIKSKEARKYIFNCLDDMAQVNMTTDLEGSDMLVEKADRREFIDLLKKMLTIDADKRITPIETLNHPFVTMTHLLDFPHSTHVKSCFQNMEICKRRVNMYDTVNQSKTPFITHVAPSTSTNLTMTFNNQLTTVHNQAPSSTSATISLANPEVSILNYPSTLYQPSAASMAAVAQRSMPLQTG
# methodDescription: HIPK2 enzyme assay (ADP-Glo)
# Type: biochemical
# assayContext: ADP-Glo, ATP 5 μM; read-out: HIPK2 IC50
pIC50: −log10 of the molar value.
Parameter pIC50: see the listing below.

O=C1NC(Nc2ccccc2)=N/C1=C\c1cncs1 [Example 15]: < 5.00
O=C1NC(Nc2ccccc2)=N/C1=C\c1ccc(=O)[nH]c1 [Example 9]: < 5.00

Specify reported pIC50 for the compound shown: O=C1/C(=C/c2ccc3ncsc3c2)N=C(N(Cc2ccccc2)c2ccccc2)N1Cc1ccccc1 [Example 42] < 5.00

Specify reported pIC50 for the compound shown: O=C1NC(Nc2ccc3c(c2)OCCO3)=N/C1=C\c1ccc2ncsc2c1 [Example 81] > 7.00

Specify reported pIC50 for the compound shown: O=C1NC(Nc2ccccc2)=N/C1=C\c1ccc2ncccc2c1 [Example 53] 6.00 to 7.00

Specify reported pIC50 for the compound shown: NC1=N/C(=C\c2ccc3ncsc3c2)C(=O)N1 [Example 103] 6.00 to 7.00

* * *

# system: human DYRK1A (Homo sapiens, UniProt Q13627)
# Construct: Recombinant full-length DYRK1A (expressed in E. Coli cells with an N-terminal GST tag); GST (N); purchased SignalChem D09-10G; host or cells: E. coli
# methodDescription: DYRK1A enzyme assay (ADP-Glo)
# Format: biochemical
# assayContext: ADP-Glo, ATP 60 μM; read-out: DYRK1A IC50
pIC50: −log10 of the molar value.
metric: pIC50

These solved cases illustrate the format of a correct answer.
O=C1NC(Nc2ccc3ncsc3c2)=N/C1=C\c1ccc2cccnc2c1 [Example 60]: < 5.00
O=C1NC(Nc2ccccc2)=N/C1=C\c1ccc2cc[nH]c2c1 [Example 73]: < 5.00
O=C1NC(Nc2ccccc2)=N/C1=C\c1ccc2cn[nH]c2c1 [Example 54]: < 5.00
O=C1/C(=C/c2ccc3c(c2)OCO3)N=C(N(Cc2ccccc2)c2ccccc2)N1Cc1ccccc1 [Example 2]: 5.00 to 6.00
CN(C1=N/C(=C\c2ccc3ncsc3c2)C(=O)N1)c1ccc(N)cc1 [Example 44]: 6.00 to 7.00

Under human DYRK1A (Homo sapiens, UniProt Q13627), report pIC50 for Cn1cnc2ccc(NC3=N/C(=C\c4ccc5ncsc5c4)C(=O)N3)cc21 [Example 93] > 7.00

Under human DYRK1A (Homo sapiens, UniProt Q13627), report pIC50 for CN(C1=N/C(=C\c2ccc3c(c2)OCCO3)C(=O)N1)c1ccc2ncsc2c1 [Example 84] 6.00 to 7.00

Under human DYRK1A (Homo sapiens, UniProt Q13627), report pIC50 for CN(C1=N/C(=C\c2ccc3c(c2)OCO3)C(=O)N1)c1ccc(N)cc1 [Example 37] 5.00 to 6.00

Under human DYRK1A (Homo sapiens, UniProt Q13627), report pIC50 for O=C1NC(Nc2ccc3ncsc3c2)=N/C1=C\c1ccc2cn[nH]c2c1 [Example 95] < 5.00

* * *

# system: human GSK3 beta (Homo sapiens)
# Construct: Recombinant full-length human GSK3 beta (expressed in Sf9 insect cells with an N-terminal His tag); His (N)
# Sequence (P49841 whole entry): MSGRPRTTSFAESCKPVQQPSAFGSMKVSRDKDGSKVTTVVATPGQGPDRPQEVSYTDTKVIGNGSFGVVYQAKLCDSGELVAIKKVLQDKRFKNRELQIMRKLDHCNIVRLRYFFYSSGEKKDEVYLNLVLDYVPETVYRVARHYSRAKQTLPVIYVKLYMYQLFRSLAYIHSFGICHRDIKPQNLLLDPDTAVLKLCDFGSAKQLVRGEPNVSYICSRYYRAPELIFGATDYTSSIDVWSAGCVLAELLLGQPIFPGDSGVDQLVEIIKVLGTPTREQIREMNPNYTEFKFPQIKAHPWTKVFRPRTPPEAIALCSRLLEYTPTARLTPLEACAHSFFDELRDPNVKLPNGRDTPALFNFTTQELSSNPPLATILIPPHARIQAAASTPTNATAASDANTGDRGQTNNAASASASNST
# methodDescription: GSK3 beta enzyme assay (ADP-Glo)
# assayContext: ATP 25 μM, read-out: GSK3b IC50
pIC50: −log10 of the molar value.
metric: pIC50

O=C1NC(Nc2ccc3ncsc3c2)=N/C1=C\c1ccc2cc[nH]c2c1: < 5.00
Cn1ncc2cc(/C=C3\N=C(Nc4ccccc4)NC3=O)ccc21: < 5.00

Specify reported pIC50 for the compound shown: CN(C1=N/C(=C\c2ccc3ncsc3c2)C(=O)N1)c1ccccc1 5.00 to 6.00

Specify reported pIC50 for the compound shown: CN(C1=N/C(=C\c2ccc3c(c2)OCO3)C(=O)N1)c1ccc2ncsc2c1 < 5.00

Specify reported pIC50 for the compound shown: Nc1ccc(NC2=N/C(=C\c3ccc4ncsc4c3)C(=O)N2)cc1 6.00 to 7.00

Specify reported pIC50 for the compound shown: O=C1NC(Nc2ccccc2)=N/C1=C\c1ccc2occc2c1 < 5.00

Specify reported pIC50 for the compound shown: O=C1NC(Nc2ccc3[nH]ccc3c2)=N/C1=C\c1ccc2ncsc2c1 6.00 to 7.00

Specify reported pIC50 for the compound shown: O=C1NC(N(CC2CC2)c2ccccc2)=N/C1=C\c1ccc2c(c1)OCCO2 < 5.00

Specify reported pIC50 for the compound shown: O=C1NC(Nc2ccc3ncsc3c2)=N/C1=C\c1ccc2nc[nH]c2c1 6.00 to 7.00

Specify reported pIC50 for the compound shown: O=C1NC(Nc2ccccc2)=N/C1=C\c1ccc2cc[nH]c2c1 < 5.00

Specify reported pIC50 for the compound shown: O=C1NC(Nc2ccc3ncsc3c2)=N/C1=C\c1cncs1 6.00 to 7.00

Specify reported pIC50 for the compound shown: CN(CC1CC1)C1=N/C(=C\c2ccc3c(c2)OCO3)C(=O)N1 < 5.00

Specify reported pIC50 for the compound shown: COCCN(C1=N/C(=C\c2ccc3ncsc3c2)C(=O)N1)c1ccc2ncsc2c1 5.00 to 6.00

Specify reported pIC50 for the compound shown: O=C1NC(NCC2CC2)=N/C1=C\c1ccc2ncsc2c1 5.00 to 6.00

Specify reported pIC50 for the compound shown: CN(Cc1ccccc1)C1=N/C(=C\c2ccc3ncsc3c2)C(=O)N1 5.00 to 6.00

Specify reported pIC50 for the compound shown: CN(CCN1CCOCC1)C1=N/C(=C\c2ccc3c(c2)OCO3)C(=O)N1 5.00 to 6.00

Specify reported pIC50 for the compound shown: Cn1ncc2cc(/C=C3\N=C(Nc4ccc5ncsc5c4)NC3=O)ccc21 < 5.00

Specify reported pIC50 for the compound shown: CN(CC1CC1)C1=N/C(=C\c2ccc3c(c2)OCCO3)C(=O)N1 < 5.00

Specify reported pIC50 for the compound shown: O=C1NC(Nc2ccc3ncsc3c2)=N/C1=C\c1ccc2[nH]ccc2c1 < 5.00

Specify reported pIC50 for the compound shown: O=C1NC(N(Cc2ccccc2)c2ccccc2)=N/C1=C\c1ccc2c(c1)OCO2 < 5.00

Specify reported pIC50 for the compound shown: COc1ccccc1N(C)C1=N/C(=C\c2ccc3c(c2)OCO3)C(=O)N1 < 5.00

Specify reported pIC50 for the compound shown: O=C1NC(Nc2ccc3c(c2)OCCO3)=N/C1=C\c1ccc2ncsc2c1 6.00 to 7.00

Specify reported pIC50 for the compound shown: NC1=N/C(=C\c2ccc3ncsc3c2)C(=O)N1 5.00 to 6.00

* * *

# system: human CLK1 (Homo sapiens)
# Construct: Recombinant human CLK1 (129-end); GST (N); purchased SignalChem C57-11G; host or cells: Sf9 insect cells
# Sequence (P49759 129-484 limits assumed): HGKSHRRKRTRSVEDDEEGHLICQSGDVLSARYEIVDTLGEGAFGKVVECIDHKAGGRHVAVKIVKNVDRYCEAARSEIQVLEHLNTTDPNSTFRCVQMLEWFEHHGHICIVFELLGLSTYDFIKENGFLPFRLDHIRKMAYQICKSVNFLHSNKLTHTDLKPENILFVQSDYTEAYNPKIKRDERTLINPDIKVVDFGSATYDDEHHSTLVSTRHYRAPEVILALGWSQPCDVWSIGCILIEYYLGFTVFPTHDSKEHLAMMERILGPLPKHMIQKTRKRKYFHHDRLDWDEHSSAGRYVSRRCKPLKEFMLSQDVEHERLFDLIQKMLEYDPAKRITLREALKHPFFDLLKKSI
# methodDescription: CLK1 enzyme assay (ADP-Glo)
# Type: biochemical
# assayContext: ADP-Glo, ATP 10 μM; read-out: CLK1 IC50
metric: IC50

These solved cases illustrate the format of a correct answer.
Cn1ncc2cc(/C=C3\N=C(Nc4ccccc4)NC3=O)ccc21: 100 to 1000 nM
CN(C1=N/C(=C\c2ccc3ncsc3c2)C(=O)N1)c1ccc(N)cc1: 100 to 1000 nM

Specify reported IC50 for the molecule shown: Cn1cnc2cc(/C=C3\N=C(Nc4ccccc4)NC3=O)ccc21 > 10000 nM

Specify reported IC50 for the molecule shown: O=C1NC(NCCN2CCOCC2)=N/C1=C\c1ccc2ncsc2c1 100 to 1000 nM

Specify reported IC50 for the molecule shown: CN(C1=N/C(=C\c2ccc3[nH]ccc3c2)C(=O)N1)c1ccc2ncsc2c1 > 10000 nM

* * *

Parameter IC50: see the listing below.
# system: human GSK3 beta (Homo sapiens)
# Construct: Recombinant full-length human GSK3 beta (expressed in Sf9 insect cells with an N-terminal His tag); His (N)
# methodDescription: GSK3 beta enzyme assay (ADP-Glo)
# assayContext: ATP 25 μM, read-out: GSK3b IC50

These solved cases illustrate the format of a correct answer.
CN(C1=N/C(=C\c2ccc3c(c2)OCO3)C(=O)N1)c1ccc(N)cc1 [Example 37]: > 10 µM
CN(Cc1ccccc1)C1=N/C(=C\c2ccc3c(c2)OCO3)C(=O)N1 [Example 23]: > 10 µM
CN(C1=N/C(=C\c2ccc3ncsc3c2)C(=O)N1)c1ccc(N)cc1 [Example 44]: 1 to 10 µM

Please find the next compound below.
Specify reported IC50 for the compound shown: CN(C1=N/C(=C\c2ccc3c(c2)OCCO3)C(=O)N1)c1ccccc1 [Example 8] > 10 µM

* * *

Parameter pIC50: see the listing below.
# system: human DYRK1A (Homo sapiens, UniProt Q13627)
# Construct: Recombinant full-length DYRK1A (expressed in E. Coli cells with an N-terminal GST tag); GST (N); purchased SignalChem D09-10G; host or cells: E. coli
# methodDescription: DYRK1A enzyme assay (ADP-Glo)
# Type: biochemical
# assayContext: ADP-Glo, ATP 60 μM; read-out: DYRK1A IC50
pIC50: −log10 of the molar value.

These solved cases illustrate the format of a correct answer.
Cn1cnc2ccc(/C=C3\N=C(Nc4ccc5ncsc5c4)NC3=O)cc21: > 7.00
Cc1nc2ccc(NC3=N/C(=C\c4ccc5ncsc5c4)C(=O)N3)cc2s1: > 7.00
O=C(O)CCN(C1=N/C(=C\c2ccc3c(c2)OCO3)C(=O)N1)c1ccccc1: 5.00 to 6.00
CN(C1=N/C(=C\c2ccc3ncsc3c2)C(=O)N1)c1ccc2ncsc2c1: 6.00 to 7.00
O=C1NC(NCCN2CCOCC2)=N/C1=C\c1ccc2ncsc2c1: 6.00 to 7.00
O=C1/C(=C/c2ccc3ncsc3c2)N=C(N(Cc2ccccc2)c2ccccc2)N1Cc1ccccc1: < 5.00

Specify reported pIC50 for the molecule shown: CN(C1=N/C(=C\c2ccc3ncsc3c2)C(=O)N1)c1ccc2c(c1)ncn2C 5.00 to 6.00

Specify reported pIC50 for the molecule shown: CN(CC1CC1)C1=N/C(=C\c2ccc3c(c2)OCO3)C(=O)N1 6.00 to 7.00

Values compiled from patent US12643887B2.
